- Study Target: T1, 4H3777-AA
- T1 chain: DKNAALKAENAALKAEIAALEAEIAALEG
- Assay Name: two-hybrid library CCmax;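 note: natural log of median RNA to DNA barcode read ratio; higher means stronger binding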
- Reported Conditions: mean of both orientations
Kindly apply the following: satisfied if interaction score is less than -1, not satisfied in every other case.

[[record]]
binder = "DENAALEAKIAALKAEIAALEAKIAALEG [4H1349-AA]"
assigned_label = "not satisfied"


Query: Regarding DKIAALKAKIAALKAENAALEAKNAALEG [4H2903-AA] , kindly confirm whether its interaction score is beneath -1.
Result: satisfied

Query: Likewise for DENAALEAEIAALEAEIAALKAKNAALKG [4H1040-AA] ?
Result: not satisfied
